test: Solubility of the compound in PBS buffer; format: physicochemical
# solubility annotations
Expressed in µg/mL, but write only the number.

compound smiles	solubility (µg/mL)
[K+].[S-]c1nnc(COc2ccc(Cl)cc2)n1Cc1ccccc1-c1ccccc1	0.4
[K+].[S-]c1nnc(COc2ccc(Cl)cc2)n1CCCn1ccnc1	14
[K+].[S-]c1nnc(Cc2nc(-c3ccccc3)no2)n1CCCn1ccnc1	64

Could you now look at the following molecule, please?
Provide measured solubility value, entry: [K+].[S-]c1nnc(Cc2nc(-c3cnccn3)no2)n1CCCc1ccccc1
49
